ASSAY NAME: In vivo biodistribution in mice
Set-up: species or system normal CD-1 male mice
RUN CONDITIONS: iv, 120 min post injection
METRIC NAME: Biodistribution: Heart (% dose/g)
Numbers only, in % dose/g.

Some molecules with recorded Biodistribution: Heart:
O=C([O-])CN(CCN(CC(=O)[O-])Cc1cc(CCC(=O)NC(P(=O)(O)O)P(=O)(O)O)ccc1[O-])Cc1cc(CCC(=O)NCC(=O)O)ccc1[O-].[68Ga+3] [[^68Ga]1c]    0.19
O=C([O-])CN(CCN(CC(=O)[O-])Cc1cc(CCC(=O)N[C@@H](CCC(=O)O)C(=O)O)ccc1[O-])Cc1cc(CCC(=O)NC(P(=O)(O)O)P(=O)(O)O)ccc1[O-].[68Ga+3] [[^68Ga]1f]    0.07
O=C([O-])CN(CCN(CC(=O)[O-])Cc1cc(CCC(=O)NC(P(=O)(O)O)P(=O)(O)O)ccc1[O-])Cc1cc(CCC(=O)NCCCCCC(=O)NCCCC[C@H](NC(=O)N[C@@H](CCC(=O)O)C(=O)O)C(=O)O)ccc1[O-].[68Ga+3] [[^68Ga]1g]    0.20
O=C([O-])CN(CCN(CC(=O)[O-])Cc1cc(CCC(=O)NC(P(=O)(O)O)P(=O)(O)O)ccc1[O-])Cc1cc(CCC(=O)NC(P(=O)(O)O)P(=O)(O)O)ccc1[O-].[68Ga+3] [[^68Ga]2]    0.42

Recorded result, C[C@H](NC(=O)CCc1ccc([O-])c(CN(CCN(CC(=O)[O-])Cc2cc(CCC(=O)NC(P(=O)(O)O)P(=O)(O)O)ccc2[O-])CC(=O)[O-])c1)C(=O)O.[68Ga+3] [[^68Ga]1d] , Biodistribution: Heart: 0.06
